Target: sGC α1/β1 heterodimer (Homo sapiens (Human), UniProt Q02108+Q02153)
Sequence (Q02108 whole entry): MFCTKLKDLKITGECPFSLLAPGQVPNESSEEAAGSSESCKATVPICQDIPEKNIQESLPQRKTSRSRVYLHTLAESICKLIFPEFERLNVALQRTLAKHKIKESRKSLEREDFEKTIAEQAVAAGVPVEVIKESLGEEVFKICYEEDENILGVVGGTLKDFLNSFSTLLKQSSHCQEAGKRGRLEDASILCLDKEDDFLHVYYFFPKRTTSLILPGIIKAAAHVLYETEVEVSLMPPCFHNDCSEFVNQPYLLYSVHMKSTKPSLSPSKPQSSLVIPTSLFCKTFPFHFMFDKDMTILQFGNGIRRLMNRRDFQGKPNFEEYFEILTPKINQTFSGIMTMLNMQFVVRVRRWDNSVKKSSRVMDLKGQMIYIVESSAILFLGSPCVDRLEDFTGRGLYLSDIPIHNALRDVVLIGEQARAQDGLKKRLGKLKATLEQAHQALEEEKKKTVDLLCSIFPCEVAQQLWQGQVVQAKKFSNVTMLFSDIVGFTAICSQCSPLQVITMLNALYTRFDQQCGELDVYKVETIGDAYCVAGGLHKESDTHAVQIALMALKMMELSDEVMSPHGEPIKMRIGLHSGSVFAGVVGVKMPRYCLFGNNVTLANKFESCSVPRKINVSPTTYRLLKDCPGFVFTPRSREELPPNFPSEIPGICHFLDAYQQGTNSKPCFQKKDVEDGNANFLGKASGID
Sequence (Q02153 whole entry): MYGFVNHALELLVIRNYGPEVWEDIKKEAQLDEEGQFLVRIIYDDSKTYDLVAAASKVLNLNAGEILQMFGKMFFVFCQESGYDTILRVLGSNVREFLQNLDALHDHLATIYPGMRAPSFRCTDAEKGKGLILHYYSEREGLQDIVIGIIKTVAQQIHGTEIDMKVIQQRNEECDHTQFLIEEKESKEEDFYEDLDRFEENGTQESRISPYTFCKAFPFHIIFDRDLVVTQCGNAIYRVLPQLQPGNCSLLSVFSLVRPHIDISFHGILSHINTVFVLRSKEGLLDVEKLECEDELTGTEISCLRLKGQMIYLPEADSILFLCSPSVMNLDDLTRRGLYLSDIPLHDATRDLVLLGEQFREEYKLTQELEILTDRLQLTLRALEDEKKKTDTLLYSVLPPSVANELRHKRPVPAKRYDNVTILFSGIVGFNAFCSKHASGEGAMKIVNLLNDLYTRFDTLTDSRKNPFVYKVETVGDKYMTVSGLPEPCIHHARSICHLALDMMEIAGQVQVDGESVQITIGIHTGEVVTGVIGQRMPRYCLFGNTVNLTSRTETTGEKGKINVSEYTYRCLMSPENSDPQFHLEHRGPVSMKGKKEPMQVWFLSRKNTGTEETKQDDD
Test: Cell-based sGC functional assay (cyclic GMP assay for sGC activator: CASA assay)
Conditions: CHO-K1, activity expressed as percentage of compound A (standard); CHO-K1/sGC cells; read-out: % Activation
Reported metric: Emax (%)

CC1CCC(Cn2nc(-c3nc(N)c4c(n3)NC(=O)[C@@]4(C)c3nc(CC(C)(C)C(=O)O)cs3)c3cccnc32)CC1 (single isomer, unassigned) [Example 125AB]; 138
C[C@@]1(c2ccc(CCC(=O)NCc3nn[nH]n3)cc2)C(=O)Nc2nc(-c3nn(Cc4ccccc4F)c4ncccc34)nc(N)c21 [Example 108B]; 122
CC1(c2nc(CCC(=O)O)co2)C(=O)Nc2nc(-c3nn(Cc4ccccc4F)c4cc(Cl)ccc34)nc(N)c21 (stereo not shown) [Example 50A]; 98
C[C@@]1(c2ccc(CCC(=O)O)cc2)C(=O)Nc2nc(-c3nn(Cc4ccc(F)cc4)c4cc(Cl)ccc34)nc(N)c21 [Example 65B]; 136
CC1(c2cnn(CCC(=O)O)n2)C(=O)Nc2nc(-c3nn(CCC(F)(F)C(F)(F)F)c4ncccc34)nc(N)c21 (stereo not shown) [Example 109B]; 78

1. C[C@@]1(c2ccc(CCC(=O)O)cc2)C(=O)Nc2nc(-c3nn(Cc4ccccc4F)c4ncccc34)nc(N)c21 [Example 21B]
2. CC1(c2ccc(/C=C/C(=O)O)cc2)C(=O)Nc2nc(-c3nn(CCC(F)(F)C(F)(F)F)c4cc(Cl)ccc34)nc(N)c21 (stereo not shown) [Example 157A]
Exercise: Could you determine which record has the numerically smaller Emax? Candidates: 1 and 2 Identify your selection by its label.
Key: 1
(1: 93%, 2: 143%)

###

Target: sGC α1/β1 heterodimer (Homo sapiens (Human), UniProt Q02108+Q02153)
Assay: Cell-based sGC functional assay (cyclic GMP assay for sGC activator: CASA assay)
Conditions: CHO-K1, activity expressed as percentage of compound A (standard); CHO-K1/sGC cells; read-out: % Activation
Reported metric: Emax (%)

Known Emax results, listed for orientation:
CC1(c2cccc(CCC(=O)O)c2)C(=O)Nc2nc(-c3nn(Cc4ccccc4F)c4ncccc34)nc(N)c21 (stereo not drawn) [Example 22A]; 91
CC(C)(Cc1csc([C@]2(C)C(=O)Nc3nc(-c4nn(Cc5ccccc5F)c5ncccc45)nc(N)c32)n1)C(=O)O [Example 90B]; 112
CC(C)(Cc1coc(C2(C)C(=O)Nc3nc(-c4nn(Cc5c(F)ccc(F)c5F)c5cc(Cl)ccc45)nc(N)c32)n1)C(=O)O (stereo not drawn) [Example 189A]; 116

1. CC(C)(Cc1coc(C2(C)C(=O)Nc3nc(-c4nn(CC5CCCCC5)c5ccccc45)nc(N)c32)n1)C(=O)O (stereo not drawn) [Example 228A]
2. CC(C)(Cc1coc(C2(C)C(=O)Nc3nc(-c4nn(Cc5ccccc5F)c5cc(Cl)ccc45)nc(N)c32)n1)c1nn[nH]n1 (stereo not drawn) [Example 239A]
3. Cc1cccc(Cn2nc(-c3nc(N)c4c(n3)NC(=O)C4(C)c3nc(CC(C)(C)C(=O)O)co3)c3ccccc32)c1F (stereo not drawn) [Example 233A]
Exercise: Which order do these items take when sorted by rising Emax? List them. Enter labels, ranked according to the request.
Key: 2, 1, 3
(2: 62.3%, 1: 95%, 3: 141%)

From: patent US10030027B2
